The entries below come with measured protein stability index values attached.
# Tested on: Saccharomyces cerevisiae;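 further: PSI derived as read-weighted mean over the 8 sorting bins, only variants exceeding 10 total reads kept, mCherry placed adjacent to the peptide and sfGFP distal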
# testDescription: protein stability index of tFT-peptide fusion in wild type (PSI (0-1 scale)); higher = more stable (slower turnover)
# details: genetic background: wild type
readoutKind: protein stability index

[[record]]
sequencestring = "AITAPMCPLLLR"
endpointresult = 0.472

[[record]]
sequencestring = "CTSCGYTFRTNN"
endpointresult = 0.245

[[record]]
sequencestring = "RVTRLDAIYRRI"
endpointresult = 0.684

[[record]]
sequencestring = "RLIDPLPVQFLN"
endpointresult = 0.121

[[record]]
sequencestring = "PDKENHLIKLLN"
endpointresult = 0.265

[[record]]
sequencestring = "MTSCGYKFRTNN"
endpointresult = 0.212

[[record]]
sequencestring = "LVVYLSCVYCIN"
endpointresult = 0.0441

[[record]]
sequencestring = "CLVSLPILIFFR"
endpointresult = 0.0649

[[record]]
sequencestring = "PRKRNHLIKLLN"
endpointresult = 0.141

[[record]]
sequencestring = "KKHKKGQKQKIR"
endpointresult = 0.676

[[record]]
sequencestring = "RWTRLDAIYFRI"
endpointresult = 0.337

[[record]]
sequencestring = "RVTPLDAIYFRI"
endpointresult = 0.547

[[record]]
sequencestring = "GLYMCSVGCWNR"
endpointresult = 0.618

[[record]]
sequencestring = "CLVSLPILLFFV"
endpointresult = 0.206

[[record]]
sequencestring = "AINLPMCPLLLR"
endpointresult = 0.243

[[record]]
sequencestring = "PSLAASEWRVVG"
endpointresult = 0.535

[[record]]
sequencestring = "VRGAVGGWRPVG"
endpointresult = 0.667

[[record]]
sequencestring = "LKILRQKMNHCN"
endpointresult = 0.191

[[record]]
sequencestring = "ARWRVGLCRGAS"
endpointresult = 0.657

[[record]]
sequencestring = "CLVSLPILLFHR"
endpointresult = 0.481

[[record]]
sequencestring = "AITLPMCKLLLR"
endpointresult = 0.392

[[record]]
sequencestring = "PSLAASFYRVVG"
endpointresult = 0.625

[[record]]
sequencestring = "KKHDKGQKQKIN"
endpointresult = 0.0762

[[record]]
sequencestring = "KKHKKWQKQKIN"
endpointresult = 0.0352

[[record]]
sequencestring = "LVVYLSCVACINR"
endpointresult = 0.0215

[[record]]
sequencestring = "ARWRVGLWRGAG"
endpointresult = 0.254

[[record]]
sequencestring = "GLYMCIVGCWFR"
endpointresult = 0.214

[[record]]
sequencestring = "GLYMCSVGCRFR"
endpointresult = 0.625

[[record]]
sequencestring = "FSMRWTFQYWVN"
endpointresult = 0.0522

[[record]]
sequencestring = "GLYMCSVGCWFRQ"
endpointresult = 0.113

[[record]]
sequencestring = "GLYMCSVGCWGR"
endpointresult = 0.625

[[record]]
sequencestring = "LKILRQKMNPQN"
endpointresult = 0.689

[[record]]
sequencestring = "AMWRVGLWRGAS"
endpointresult = 0.43

[[record]]
sequencestring = "EKHKKGQKQKIN"
endpointresult = 0.178

[[record]]
sequencestring = "VRGAVGGWWLVG"
endpointresult = 0.455

[[record]]
sequencestring = "RLIQPLPVRFLN"
endpointresult = 0.0593

[[record]]
sequencestring = "CLVSLPILLFFRV"
endpointresult = 0.0545

[[record]]
sequencestring = "RSLRVLLPLYFRW"
endpointresult = 0.215

[[record]]
sequencestring = "RVTRLDAIYFYI"
endpointresult = 0.425

[[record]]
sequencestring = "RSARVLLPLYFR"
endpointresult = 0.336

[[record]]
sequencestring = "PKKRNHLIKLLN"
endpointresult = 0.149

[[record]]
sequencestring = "PSLAASLWRVVG"
endpointresult = 0.133

[[record]]
sequencestring = "LVVTLSCVACIN"
endpointresult = 0.0146

[[record]]
sequencestring = "VRGAVGGWRWVG"
endpointresult = 0.144

[[record]]
sequencestring = "PDKRNHLIKLLP"
endpointresult = 0.595

[[record]]
sequencestring = "ILVSLPILLFFR"
endpointresult = 0.111

[[record]]
sequencestring = "GLYMCSVGCEFR"
endpointresult = 0.594

[[record]]
sequencestring = "TDKRNHLIKLLN"
endpointresult = 0.12

[[record]]
sequencestring = "GLYMCSVGCWFRP"
endpointresult = 0.287

[[record]]
sequencestring = "GLYMCSVGCYFR"
endpointresult = 0.425

[[record]]
sequencestring = "LVVYLSCVNCIN"
endpointresult = 0.135

[[record]]
sequencestring = "VRGIVGGWRLVG"
endpointresult = 0.171

[[record]]
sequencestring = "ARWRVGLWRQAS"
endpointresult = 0.0958

[[record]]
sequencestring = "RLIQPLPVQFLNH"
endpointresult = 0.646

[[record]]
sequencestring = "KKHKKGQKQKINI"
endpointresult = 0.649

[[record]]
sequencestring = "CLVSLPILLFFRK"
endpointresult = 0.115

[[record]]
sequencestring = "ARWRVGLWRVAS"
endpointresult = 0.0841

[[record]]
sequencestring = "ARWRVGIWRGAS"
endpointresult = 0.344

[[record]]
sequencestring = "CMVSLPILLFFR"
endpointresult = 0.0703

[[record]]
sequencestring = "CLQSLPILLFFR"
endpointresult = 0.0983

[[record]]
sequencestring = "LAILRQKMNHQN"
endpointresult = 0.137

[[record]]
sequencestring = "RVTRLDAIYFRIF"
endpointresult = 0.0593

[[record]]
sequencestring = "FSMRWTFRNWVN"
endpointresult = 0.0567

[[record]]
sequencestring = "AITLPMCPLLLM"
endpointresult = 0.505

[[record]]
sequencestring = "KKHKKIQKQKIN"
endpointresult = 0.0571

[[record]]
sequencestring = "CLVSLPISLFFR"
endpointresult = 0.101

[[record]]
sequencestring = "ARWRVGLWRGASY"
endpointresult = 0.653

[[record]]
sequencestring = "PYKRNHLIKLLN"
endpointresult = 0.141

[[record]]
sequencestring = "SLVSLPILLFFR"
endpointresult = 0.0746

[[record]]
sequencestring = "KKHKRGQKQKIN"
endpointresult = 0.0579

[[record]]
sequencestring = "VRGAVGGWVLVG"
endpointresult = 0.202

[[record]]
sequencestring = "ACTLPMCPLLLR"
endpointresult = 0.318

[[record]]
sequencestring = "AITLPRCPLLLR"
endpointresult = 0.265

[[record]]
sequencestring = "ARWRVGVWRGAS"
endpointresult = 0.304

[[record]]
sequencestring = "GLYMCSVGIWFR"
endpointresult = 0.165

[[record]]
sequencestring = "RVTVLDAIYFRI"
endpointresult = 0.516

[[record]]
sequencestring = "ARWRVGLWMGAS"
endpointresult = 0.622

[[record]]
sequencestring = "RLIQPLQVQFLN"
endpointresult = 0.0288

[[record]]
sequencestring = "RSLRVLLPLYFW"
endpointresult = 0.339

[[record]]
sequencestring = "LKILRTKMNHQN"
endpointresult = 0.178

[[record]]
sequencestring = "CLVSWPILLFFR"
endpointresult = 0.0554

